# Tested on: C57BL/6 (B6) male mice
# protocol: Blood counts in the tolerability study
# Type: in vivo
# protocol-conditions: mice, 5 mg/kg p.o. days 0, 3, 5; blood day 8; AVG
measure-name: RBC

In: Tell me the measured RBC of `CC(C)n1nc(-c2cc3cc(O)ccc3[nH]2)c2c(N)ncnc21` , please.
Out: 9.25 10^12/L

----------
# protocol: Solubility by nephelometry (water, buffer pH 7.4)
# Assay type: physicochemical
# protocol-conditions: water
// values below are reported logSH2O

Below: 2 compounds and their reported logSH2O.
>>> result_value("Br.Br.c1ccc2[nH]c(NC3CCNCC3)nc2c1 [Compound 2]")
">−2.58"
>>> result_value("CC(C)n1nc(-c2cc3cc(O)ccc3[nH]2)c2c(N)ncnc21 [Torkinib, torkinib]")
"<−4.71"

Here is the next item to consider.
In: Tell me the measured logSH2O of CO[C@H]1C[C@@H]2CC[C@@H](C)[C@@](O)(O2)C(=O)C(=O)N2CCCC[C@H]2C(=O)O[C@H]([C@H](C)C[C@@H]2CC[C@@H](O)[C@H](OC)C2)CC(=O)[C@H](C)/C=C(\C)[C@@H](O)[C@@H](OC)C(=O)[C@H](C)C[C@H](C)/C=C/C=C/C=C/1C [Rapamycin, rapamycin] , please.
Out: <−5.18
